biological target: HLE (human leukocyte elastase) (Homo sapiens, UniProt P08246); experiment: Inhibition of HLE by desmosine-like peptidyl carbamates, steady state kinetics (Dixon plot, Lineweaver-Burk slope replot); type: biochemical; conditions: Table 2, variations in P3; Lineweaver-Burk slope replots, correlations >0.990; read-out: Ki values (μM) Replot
Sequence (P08246 30-267): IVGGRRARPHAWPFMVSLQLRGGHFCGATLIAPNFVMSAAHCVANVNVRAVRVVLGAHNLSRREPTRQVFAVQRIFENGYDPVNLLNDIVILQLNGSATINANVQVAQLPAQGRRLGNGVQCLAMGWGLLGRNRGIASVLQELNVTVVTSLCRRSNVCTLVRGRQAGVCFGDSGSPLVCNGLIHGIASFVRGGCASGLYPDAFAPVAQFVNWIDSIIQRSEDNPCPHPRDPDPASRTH
Listed below: Ki values for each entry.
VALUE_TYPE: Ki (µM)

# MOLECULE, TARGET_OR_TEST_SYSTEM, MEAS_VALUE
measured = [
    ("COC(=O)CCC(=O)NC(C)C(=O)NC(CCCNC(=O)OCc1ccccc1)C(=O)N1CCCC1C(=O)CN(C(=O)Oc1ccc([N+](=O)[O-])cc1)C(C)C (stereo not shown) [Compound 50b]", "HLE (human leukocyte elastase) (Homo sapiens, UniProt P08246)", 19.2),
    ("COC(=O)CCC(=O)NC(C)C(=O)NC(CCCNC(=O)c1ccccc1)C(=O)N1CCCC1C(=O)CN(C(=O)Oc1ccc([N+](=O)[O-])cc1)C(C)C (stereo not shown) [Compound 51a]", "HLE (human leukocyte elastase) (Homo sapiens, UniProt P08246)", 2.14),
    ("COC(=O)CCC(=O)N[C@@H](C)C(=O)N[C@@H](CCCCNC(=O)c1ccccc1)C(=O)N1CCC[C@H]1C(=O)CN(C(=O)Oc1ccc([N+](=O)[O-])cc1)C(C)C [Compound 49b]", "HLE (human leukocyte elastase) (Homo sapiens, UniProt P08246)", 38.5),
    ("COC(=O)CCC(=O)N[C@@H](C)C(=O)N[C@@H](CCCCNC(=O)c1ccccc1)C(=O)N1CCC[C@H]1C(=O)CN(C(=O)Oc1ccc([N+](=O)[O-])cc1)C(C)C [Compound 49a]", "HLE (human leukocyte elastase) (Homo sapiens, UniProt P08246)", 0.31),
]

====

target: HLE (human leukocyte elastase) (Homo sapiens, UniProt P08246); assay: Inhibition of HLE by desmosine-like peptidyl carbamates, steady state kinetics (Dixon plot, Lineweaver-Burk slope replot); format: biochemical; conditions: Table 1, variations in P4; Dixon plot, linear regression correlations >0.950; read-out: Ki value (μM) Dixon
Mark TRUE only when Ki stays strictly below 4 µM. Values equal to the cut-off are FALSE.

# COMPOUND, TARGET_OR_TEST_SYSTEM, CLASS
rows = [
    ("COC(=O)CCC(=O)NC(CCCCNC(=O)c1ccccc1)C(=O)NC(C)C(=O)N1CCCC1C(=O)CN(C(=O)Oc1ccc([N+](=O)[O-])cc1)C(C)C (single isomer, unassigned) [Compound 45b]", "HLE (human leukocyte elastase) (Homo sapiens, UniProt P08246)", "TRUE"),
    ("COC(=O)CCC(=O)NC(CCCCNC(=O)OCc1ccccc1)C(=O)NC(C)C(=O)N1CCCC1C(=O)CN(C(=O)Oc1ccc([N+](=O)[O-])cc1)C(C)C (single isomer, unassigned) [Compound 44a]", "HLE (human leukocyte elastase) (Homo sapiens, UniProt P08246)", "TRUE"),
    ("COC(=O)CCC(=O)NC(CCCNC(=O)OCc1ccccc1)C(=O)NC(C)C(=O)N1CCCC1C(=O)CN(C(=O)Oc1ccc([N+](=O)[O-])cc1)C(C)C (single isomer, unassigned) [Compound 46b]", "HLE (human leukocyte elastase) (Homo sapiens, UniProt P08246)", "FALSE"),
    ("COC(=O)CCC(=O)NC(CCCNC(=O)OCc1ccccc1)C(=O)NC(C)C(=O)N1CCCC1C(=O)CN(C(=O)Oc1ccc([N+](=O)[O-])cc1)C(C)C (single isomer, unassigned) [Compound 46a]", "HLE (human leukocyte elastase) (Homo sapiens, UniProt P08246)", "TRUE"),
    ("COC(=O)CCC(=O)NC(CCCCNC(=O)OCc1ccccc1)C(=O)NC(C)C(=O)N1CCCC1C(=O)CN(C(=O)Oc1ccc([N+](=O)[O-])cc1)C(C)C (single isomer, unassigned) [Compound 44b]", "HLE (human leukocyte elastase) (Homo sapiens, UniProt P08246)", "FALSE"),
    ("COC(=O)CCC(=O)NC(CCCCNC(=O)c1ccccc1)C(=O)NC(C)C(=O)N1CCCC1C(=O)CN(C(=O)Oc1ccc([N+](=O)[O-])cc1)C(C)C (single isomer, unassigned) [Compound 45a]", "HLE (human leukocyte elastase) (Homo sapiens, UniProt P08246)", "TRUE"),
]
